Reported inhibition values are given for each entry in this list.
Target: Autotaxin (Homo sapiens, UniProt Q13822)
Assay: Inhibition of C-terminal FLAG-tagged human recombinant autotaxin using synthetic substrate FS-3 at 10 uM measured every 2 mins by FRET assay relative to control
Peptide text beside a SMILES is read from it. * marks the point of attachment. Cbz = O=C(OCc1ccccc1)*
Reply numerically in %, unit not repeated.

>>> meas_value("Cc1cc(C)cc(CC(=O)N2CCCN(c3ccc(C(=O)NC(C(N)=O)C(C)O)cn3)CC2)c1 (stereo not given)")
10
>>> meas_value("COc1cccc(-c2ccc(C(=O)N(CCN)Cc3ccc(NC(C)=O)cc3)cn2)c1")
20
>>> meas_value("COc1cccc(CCNC(=O)c2ccc3c(c2)nc(-c2cc(OC)cc(OC)c2)n3CCc2ccc(OC)c(OC)c2)c1")
20
>>> meas_value("CC(C)c1ccc(OCC(=O)N2CCC(CCCC3CCN(c4ccc(C(=O)N5CCCC5C(N)=O)cn4)CC3)CC2)cc1 (stereo not given)")
0
>>> meas_value("COc1cccc(CNC2CC(=O)N(c3ccc(N4C(=O)CC(NCc5cccc(OC)c5OC)C4=O)cc3)C2=O)c1OC (stereo not given)")
10
>>> meas_value("CCC(C)C(NC(=O)OCc1ccccc1)C(=O)NC(Cc1ccc(O)cc1)C(N)=O (stereo not drawn) (Cbz-Ile-Tyr-NH2; configuration not given here)")
0
>>> meas_value("CCc1cc2c(cc3c(=O)n(CCCC(=O)NCc4ccc(Cl)cc4)ncn32)s1")
30
>>> meas_value("CCCOC(=O)c1ccc(/N=C/c2cccc(OC)c2O)cc1")
10

Q: Consider the compound CC(C)Cc1ccc(C(C)C(=O)N2CCN(c3ncccc3C(=O)NC(C(N)=O)C(C)O)CC2)cc1 (stereo not given) and give its measured inhibition.
A: 20

Q: Input O=C(O)c1cc(-c2ccc(/C=C3/S/C(=N\Cc4ccccc4)N(Cc4ccccc4)C3=O)o2)ccc1Cl
A: 20

Q: Input COc1cc(CCNC(=O)c2ccc3c(c2)nc(-c2cccc(C)c2)n3CCc2ccc(OC)c(OC)c2)cc(OC)c1
A: 30

Q: Input COC(=O)c1ccc(/C=C2/Sc3ccccc3N(Cc3ccccc3F)C2=O)cc1
A: 20

Q: Input CC(O)C(NC(=O)c1cccnc1N1CCN(C(=O)Cc2ccc(-c3ccccc3)cc2)CC1)C(N)=O (stereo not given)
A: 20

Q: Input CCCCCCOc1ccc(C(=O)COC(=O)c2ccccc2-c2ccccc2C(=O)COC(=O)c2ccc(OCCCCCC)cc2)cc1
A: 0

Q: Input Cc1ccc2[nH]c3nc(SCC(=O)NCc4ccc5c(c4)OCO5)nnc3c2c1
A: 10

Q: Input CCN(C(=O)c1ccc(/C=C2\S/C(=N\c3ccccc3)N([C@H](C)C(=O)O)C2=O)cc1)c1ccccc1
A: 20

Q: Input COCCCn1c(CN2CCN(c3ccccc3F)CC2)nc2cc(C(=O)NCC(O)CO)ccc21 (stereo not given)
A: 10

Q: Input CCCCOc1ccc(-c2nc3cc(C(=O)NCCOCCO)ccc3n2Cc2ccco2)cc1
A: 10

Q: Input O=C(NCc1ccc(NC(=O)c2cn(Cc3ccccc3)c3ccccc23)cc1)c1cnc2cc(C(F)(F)F)ccc2c1O
A: 0

Q: Input Nc1c(/N=N/c2ccc(-c3ccc(/N=N/c4ccc(O)cc4)cc3)cc2)c(S(=O)(=O)O)cc2cc(S(=O)(=O)O)c(/N=N/c3ccccc3)c(O)c12
A: 0

====

Target: Autotaxin (Homo sapiens, UniProt Q13822)
Experiment: Inhibition of C-terminal FLAG-tagged human recombinant autotaxin using synthetic substrate FS-3 at 10 uM measured every 2 mins by FRET assay relative to control
Reported inhibition values are given for each entry in this list.
Reply numerically in %, unit not repeated.

Example molecules with recorded inhibition:
>>> meas_value("CCOc1cc(/C=C2/NC(=O)N(Cc3ccccc3F)C2=O)cc(Br)c1OCc1ccc2ccccc2c1")
10
>>> meas_value("COc1cccc(CCNC(=O)c2ccc3c(c2)nc(-c2cc(OC)c(OC)c(OC)c2)n3CCc2ccc(OC)c(OC)c2)c1")
30

Q: # returns recorded inhibition (system: Autotaxin (Homo sapiens, UniProt Q13822)) for O=C(Cn1c(=O)sc2ccccc21)OCc1cccc(Oc2ccccc2)c1
A: 0

====

Reported inhibition values are given for each entry in this list.
Biological target: Autotaxin (Homo sapiens)
Assay: Inhibition of C-terminal FLAG-tagged human recombinant autotaxin using synthetic substrate FS-3 at 10 uM measured every 2 mins by FRET assay relative to control
Remember to quote the unit after the number.

Example compounds with recorded inhibition:
>>> meas_value("CC(C)c1ccc(S(=O)(=O)N2CCn3nc(C4CCC(CNC(=O)c5ccco5)CC4)cc32)cc1 (stereo not drawn)")
"20%"
>>> meas_value("COc1ccc(OC)c(NC(=S)N2CCn3cccc3C2c2ccc(OC)c(OC)c2)c1 (stereo not drawn)")
"30%"
>>> meas_value("COc1ccc(-c2cc(C(=O)N/N=C/c3cc(OC)c(O)c(OC)c3)[nH]n2)cc1OC")
"10%"

Q: # returns recorded inhibition (system: Autotaxin (Homo sapiens)) for CC(c1cc2ccccc2o1)N1CCN(C(=O)CCSc2ccc3ccccc3c2)CC1 (stereo not drawn)
A: 20%

Q: Input COc1cc(C2C(C#N)=C(SCC(=O)Nc3cccc4ccccc34)NC3=C2C(=O)CCC3)ccc1O (stereo not drawn)
A: 30%

Q: Input COc1ccc(/C=c2/sc3n(c2=O)NC2(c4ccccc4)N(C)C(=O)N(C)C2(c2ccccc2)N=3)cc1O (stereo not drawn)
A: 10%

Q: Input CCN(C(=O)c1cccc(/C=C2\SC(=S)N([C@H](Cc3ccccc3)C(=O)O)C2=O)c1)c1ccccc1
A: 30%

Q: Input O=C(O)[C@@H](Cc1ccc(O)cc1)/N=C1\S/C(=C\c2ccc(-c3cccc(Cl)c3)o2)C(=O)N1c1ccccc1
A: 30%

====

Biological target: UniProt Q13822
Assay: Inhibition of C-terminal FLAG-tagged human recombinant autotaxin using synthetic substrate FS-3 at 10 uM measured every 2 mins by FRET assay relative to control
PROPERTY NAME: inhibition (%)
Reply numerically in %, unit not repeated.

Example molecules with recorded inhibition:
>>> meas_value("COCCNS(=O)(=O)c1ccc2c(c1)NC(=O)C(Cc1ccccc1)N2C(=O)CNCc1ccc(OC)cc1 (configuration not stated)")
30
>>> meas_value("Cc1cc(C)cc(CC(=O)N2CCN(c3ncccc3C(=O)NC(C(N)=O)C(C)O)CC2)c1 (configuration not stated)")
0
>>> meas_value("COCCNS(=O)(=O)c1ccc2c(c1)NC(=O)C(CO)N2C(=O)CN1CCC(N2CCCCC2)CC1 (configuration not stated)")
20
>>> meas_value("COc1cc(CCNC(=O)c2ccc3c(c2)nc(-c2cc(OC)c(OC)c(OC)c2)n3CCc2ccc(OC)c(OC)c2)cc(OC)c1")
30
>>> meas_value("COc1ccccc1C1CC(=O)NC(SCC(=O)Nc2ccc(Br)cc2)=C1C#N (configuration not stated)")
30

Q: Consider the molecule COc1cc(/C=N/NC(=O)c2ccc(NC(=O)c3ccc(F)cc3)cc2)cc(Cl)c1O and give its measured inhibition.
A: 10

Q: Input COc1ccc(CNC(=O)N2CC(O)C(N3CCN(c4ccccc4F)CC3)C2)cc1 (configuration not stated)
A: 10

Q: Input COc1ccc(CCn2c(COc3ccccc3)nc3cc(C(=O)NCC(O)CO)ccc32)cc1OC (configuration not stated)
A: 10

Q: Input O=C1Nc2ccc([N+](=O)[O-])cc2/C1=N/NC(=O)c1ccc(C(=O)N/N=C2\C(=O)Nc3ccc([N+](=O)[O-])cc32)cc1
A: 10

Q: Input CCOC(=O)c1sc(NC(=O)c2ccc(Oc3ccc(C(=O)Nc4sc(C(=O)OCC)c(C)c4C(=O)OCC)cc3)cc2)c(C(=O)OCC)c1C
A: 10

====

Target: Autotaxin (Homo sapiens, UniProt Q13822)
Experiment: Inhibition of C-terminal FLAG-tagged human recombinant autotaxin using synthetic substrate FS-3 at 10 uM measured every 2 mins by FRET assay relative to control
PROPERTY NAME: inhibition (%)
Reply numerically in %, unit not repeated.

Example compounds with recorded inhibition:
>>> meas_value("COc1ccc(-c2cc(C(=O)NC(C)(C)C(=O)NCCCOC(C)C)c3ccccc3n2)cc1C")
20
>>> meas_value("CC(O)C(NC(=O)c1ccc(N2CCC(CCCC3CCN(C(=O)CCC(=O)c4ccccc4)CC3)CC2)nc1)C(N)=O (configuration not stated)")
87.4
>>> meas_value("CC1CN(c2ccc(C(=O)N3CCCC3C(N)=O)cn2)CCC1C(=O)COc1cccc2ccccc12 (configuration not stated)")
64.7

Q: Consider the compound CCCCOc1ccc(-c2nc3cc(C(=O)NCc4ccc(C(F)(F)F)cc4)ccc3n2CCc2ccc(OC)c(OC)c2)cc1 and give its measured inhibition.
A: 30

Q: Input CC(=O)CCC(=O)N1CCN(c2ccc(C(=O)NC(C(N)=O)C(C)O)cn2)CC1C (configuration not stated)
A: 10

Q: Input CC(CNC(=O)CCCn1ncn2c(cc3occc32)c1=O)c1ccccc1 (configuration not stated)
A: 10

Q: Input O=C1/C(=C\c2cc(Cc3ccccc3)ccc2O)SC(=S)N1Cc1ccccc1
A: 10
